molecular target: BACH1 (Homo sapiens, UniProt O14867); assay: Direct-binding FRET assay; parameters: made in house; conditions: 23°C; N-terminal rhodamine design; mean or single; read-out: Kd
Sequence (O14867 557-620 limits assumed): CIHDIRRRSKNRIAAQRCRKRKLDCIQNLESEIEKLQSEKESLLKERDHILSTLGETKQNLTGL
Where no end group is shown, it is not given here.
Catalogue of Kd readings, one per entry.

PRIMARY_SEQUENCE | Kd
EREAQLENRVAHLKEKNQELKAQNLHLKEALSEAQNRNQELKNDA [XBP1-d1] | > 1 µM
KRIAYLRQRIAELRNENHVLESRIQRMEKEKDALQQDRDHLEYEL [ATF5-d1] | > 5 µM

* * *

Biological target: FOSL1 (Homo sapiens, UniProt P15407)
Construct: made in house
Sequence (P15407 105-168 limits assumed): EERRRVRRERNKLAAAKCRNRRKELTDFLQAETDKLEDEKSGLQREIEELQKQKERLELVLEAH
Assay: Direct-binding FRET assay
Conditions: 37°C; N-terminal rhodamine design; mean or single
Where no end group is shown, it is not given here.
REPORTED_METRIC: Kd

PRIMARY_SEQUENCE | RESULT_VALUE
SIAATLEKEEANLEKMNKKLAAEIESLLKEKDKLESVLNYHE [JUN-d1] | > 1000 nM

* * *

Molecular target: BATF (Homo sapiens)
Construct: made in house
Sequence (Q16520 26-89 limits assumed): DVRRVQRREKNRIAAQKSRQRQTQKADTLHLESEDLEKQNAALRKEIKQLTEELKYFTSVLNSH
Assay: Direct-binding FRET assay
Settings: Kd, 4°C; C-terminal rhodamine design; mean or single
Method: The direct binding assay was performed manually in 384-well plates and is similar to a previously described assay. Wells were filled with 20 μL of 1 mM TCEP-HCl. […] Briefly, the Kd of the designed peptide homodimer was experimentally determined and used with previously determined target homodimer Kd values to determine the heterodimer Kd. […] A minimum 15% change in the donor fluorescence upon titrating the acceptor peptide from 0 to 1000 nM was required for a fit to be attempted. […]
Where no end group is shown, it is not given here.

PRIMARY_SEQUENCE | Kd
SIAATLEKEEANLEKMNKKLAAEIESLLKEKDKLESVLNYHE [JUN-d1] | 200 to 1000 nM

* * *

biological target: FOS (Homo sapiens, UniProt P01100); assay: Direct-binding FRET assay; parameters: made in house; details: 37°C; C-terminal rhodamine design; repeat 2; read-out: Kd
Sequence (P01100 137-200 limits assumed): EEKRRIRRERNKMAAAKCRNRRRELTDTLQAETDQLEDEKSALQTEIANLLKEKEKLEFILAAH
pKd: −log10 of the molar value. Where no end group is shown, it is not given here.

PRIMARY_SEQUENCE | pKd
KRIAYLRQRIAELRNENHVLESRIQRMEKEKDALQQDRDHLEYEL [ATF5-d1] | < 5.30

* * *

Target: NFIL3 (Homo sapiens, UniProt Q16649)
Construct: made in house
Sequence (Q16649 73-136 limits assumed): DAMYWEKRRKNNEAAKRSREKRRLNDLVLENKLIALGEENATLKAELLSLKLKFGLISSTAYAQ
Experiment: Direct-binding FRET assay
Details: 37°C; C-terminal rhodamine design; repeat 2; read-out: Kd
Where no end group is shown, it is not given here.
REPORTED_METRIC: Kd

PRIMARY_SEQUENCE | RESULT_VALUE
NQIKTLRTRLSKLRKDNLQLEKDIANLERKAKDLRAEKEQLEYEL [ATF4-d1] | > 5 µM

* * *

target: CREBZF (Homo sapiens, UniProt Q9NS37); construct: made in house; assay: Direct-binding FRET assay; conditions: 23°C; C-terminal fluorescein design as donor, TAMRA target titrated
Sequence (Q9NS37 204-267 limits assumed): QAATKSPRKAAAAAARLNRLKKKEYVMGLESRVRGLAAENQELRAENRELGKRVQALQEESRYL
pKd: −log10 of the molar value. Where no end group is shown, it is not given here.

PRIMARY_SEQUENCE | pKd
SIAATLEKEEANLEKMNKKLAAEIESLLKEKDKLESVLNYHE [JUN-d1] | < 6.00

* * *

molecular target: MAFF (Homo sapiens); construct: made in house; assay: Direct-binding FRET assay; conditions: 23°C; N-terminal rhodamine design; repeat 1; read-out: Kd
Sequence (Q9ULX9 51-114 limits assumed): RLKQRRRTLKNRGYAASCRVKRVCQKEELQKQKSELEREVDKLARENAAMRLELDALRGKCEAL
Where no end group is shown, it is not given here.

PRIMARY_SEQUENCE | Kd
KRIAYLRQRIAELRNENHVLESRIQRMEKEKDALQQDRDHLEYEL [ATF5-d1] | > 5 µM

* * *

Target: ATF6B (Homo sapiens)
Sequence (Q99941 325-388 limits assumed): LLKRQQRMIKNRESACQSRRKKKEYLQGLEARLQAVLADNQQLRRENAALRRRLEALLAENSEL
Assay: Direct-binding FRET assay
Parameters: made in house
Conditions: 37°C; C-terminal fluorescein design as donor, TAMRA target titrated; read-out: Kd
Method: The direct binding assay was performed manually in 384-well plates and is similar to a previously described assay. Wells were filled with 20 μL of 1 mM TCEP-HCl. […] Briefly, the Kd of the designed peptide homodimer was experimentally determined and used with previously determined target homodimer Kd values to determine the heterodimer Kd. […] A minimum 15% change in the donor fluorescence upon titrating the acceptor peptide from 0 to 1000 nM was required for a fit to be attempted. […]
Where no end group is shown, it is not given here.
Readings of Kd for the listed sequences

PRIMARY_SEQUENCE | Kd
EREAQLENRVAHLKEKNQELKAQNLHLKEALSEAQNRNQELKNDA [XBP1-d1] | > 1000 nM
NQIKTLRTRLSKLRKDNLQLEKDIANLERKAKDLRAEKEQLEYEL [ATF4-d1] | > 1000 nM

* * *

biological target: MAFF (Homo sapiens); construct: made in house; assay: Direct-binding FRET assay; settings: 4°C; C-terminal fluorescein design as donor, TAMRA target titrated; read-out: Kd
Where no end group is shown, it is not given here.

PRIMARY_SEQUENCE | Kd
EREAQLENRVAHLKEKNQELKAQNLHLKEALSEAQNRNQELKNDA [XBP1-d1] | > 1000 nM

* * *

Biological target: DBP (Homo sapiens, UniProt Q10586)
Construct: made in house
Sequence (Q10586 255-318 limits assumed): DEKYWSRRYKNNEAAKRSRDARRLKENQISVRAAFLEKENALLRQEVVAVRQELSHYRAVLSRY
Assay: Direct-binding FRET assay
Settings: Kd, 4°C; C-terminal fluorescein design as donor, TAMRA target titrated
Description: The direct binding assay was performed manually in 384-well plates and is similar to a previously described assay. Wells were filled with 20 μL of 1 mM TCEP-HCl. […] Briefly, the Kd of the designed peptide homodimer was experimentally determined and used with previously determined target homodimer Kd values to determine the heterodimer Kd. […] A minimum 15% change in the donor fluorescence upon titrating the acceptor peptide from 0 to 1000 nM was required for a fit to be attempted. […]
Where no end group is shown, it is not given here.
REPORTED_METRIC: Kd

PRIMARY_SEQUENCE | REPORTED_METRIC | RESULT_VALUE
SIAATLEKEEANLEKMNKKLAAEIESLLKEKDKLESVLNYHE [JUN-d1] | Kd | > 1000 nM

* * *

biological target: MAFG (Homo sapiens, UniProt O15525); assay: Direct-binding FRET assay; design: made in house; settings: 23°C; N-terminal rhodamine design; mean or single; read-out: Kd
Sequence (O15525 51-114 limits assumed): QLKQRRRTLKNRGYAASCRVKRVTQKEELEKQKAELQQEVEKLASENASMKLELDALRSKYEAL
pKd: −log10 of the molar value. Where no end group is shown, it is not given here.

PRIMARY_SEQUENCE | pKd
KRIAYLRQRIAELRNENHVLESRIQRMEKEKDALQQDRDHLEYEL [ATF5-d1] | < 6.00
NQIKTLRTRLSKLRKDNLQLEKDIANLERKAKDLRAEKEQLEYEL [ATF4-d1] | < 6.00
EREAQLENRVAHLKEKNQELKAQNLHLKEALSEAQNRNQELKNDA [XBP1-d1] | < 6.00

* * *

biological target: CREB3L3 (Homo sapiens, UniProt Q68CJ9); construct: made in house; experiment: Direct-binding FRET assay; conditions: 37°C; N-terminal rhodamine design; mean or single
Sequence (Q68CJ9 243-306 limits assumed): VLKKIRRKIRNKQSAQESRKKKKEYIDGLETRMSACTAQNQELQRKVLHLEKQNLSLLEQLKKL
pKd: −log10 of the molar value. Where no end group is shown, it is not given here.

PRIMARY_SEQUENCE | ASSAYED_SYSTEM | pKd
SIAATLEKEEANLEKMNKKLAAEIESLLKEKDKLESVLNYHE [JUN-d1] | CREB3L3 (Homo sapiens, UniProt Q68CJ9) | < 6.00

* * *

molecular target: BACH1 (Homo sapiens); experiment: Direct-binding FRET assay; set-up: made in house; settings: 37°C; N-terminal rhodamine design; mean or single; read-out: Kd
Where no end group is shown, it is not given here.
Catalogue of Kd readings, one per entry.

PRIMARY_SEQUENCE | Kd
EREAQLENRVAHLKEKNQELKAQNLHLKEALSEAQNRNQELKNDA [XBP1-d1] | > 1000 nM
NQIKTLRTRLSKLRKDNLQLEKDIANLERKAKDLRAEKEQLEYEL [ATF4-d1] | > 1000 nM
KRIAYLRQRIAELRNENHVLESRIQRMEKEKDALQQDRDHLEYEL [ATF5-d1] | > 1000 nM

* * *

target: FOSL1 (Homo sapiens); construct: made in house; assay: Direct-binding FRET assay; settings: 23°C; C-terminal rhodamine design; mean or single
Where no end group is shown, it is not given here.

PRIMARY_SEQUENCE | Kd
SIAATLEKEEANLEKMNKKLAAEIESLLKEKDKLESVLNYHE [JUN-d1] | > 1 µM

* * *

molecular target: ATF4 (Homo sapiens, UniProt P18848); construct: made in house; assay: Direct-binding FRET assay; details: 23°C; C-terminal fluorescein design as donor, TAMRA target titrated; read-out: Kd
Sequence (P18848 278-341 limits assumed): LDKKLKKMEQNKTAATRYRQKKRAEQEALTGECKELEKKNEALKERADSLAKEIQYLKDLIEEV
pKd: −log10 of the molar value. Where no end group is shown, it is not given here.
REPORTED_METRIC: pKd

PRIMARY_SEQUENCE | RESULT_VALUE
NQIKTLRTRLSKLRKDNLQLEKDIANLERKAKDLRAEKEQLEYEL [ATF4-d1] | 8.43
